Data provenance: patent US20230183352A1

FACS reading: recorded values
biological target: T1, Claudin 18.2 (CLDN18.2), expressed on CHOS-CLDN 18.2 / HEK293-CLDN 18.2 / HCC827-CLDN 18.2 cells (human, UniProt P56856-2 1-261); assay: FACS, CHOS-CLDN18.2 cells, 0.005 µg/ml
T1 construct: whole, on cells; The species is not repeated for the CHOS-CLDN 18.2 cells; also called claudin-18A2
PROPERTY NAME: FACS reading

INSERT INTO assay_data (binder, numeric_result) VALUES
  ('QP192193 (antibody, human IgG1, V domains shown, Chimeric; also called 40F1; mouse-derived chimeric antibody QP192193) VH: QVQLQQSGAELVRPGSSVKISCKASGYAFSSYWMNWVKQRPGQGLEWIGQIYPGNGDTTYNGKFKGQATLTADKSSSTVYMQLSSLTSEDSAVYFCARFVKGNAMDYWGQGTSVTVSS VL: DIVMTQSPSSLTVTAGEKVTMSCKSSQSLLNSGNQKNYLTWYQQNPGQPPKMLIYWASTRESGVPDRFTGSGSGIDFSLTISSVQAEDLALYYCQNAYSYPFTFGSGTKLEIK', 3790),
  ('QP14451442 (antibody, human IgG1, kappa, V domains shown, Humanized from QP192193) VH: QVQLVQSGAEVKKPGASVKVSCKASGYAFSSYWMNWVRQAPGQGLEWIGQIYPGNGDTTYNGKFKGRVTMTADKSTSTVYMELSSLRSEDTAVYFCARFVKGNAMDYWGQGTLVTVSS VL: DIVMTQSPDSLAVSLGERATISCKSSQSLLNSGNQKNYLTWYQQKPGQPPKMLIYWASTRESGVPDRFSGSGSGIDFTLTISSVQAEDVAVYYCQNAYSYPFTFGQGTKLEIKR', 4790);
